molecular target: Cynomolgus T cell receptor on cynomolgus primary T cells (cynomolgus monkey); experiment: cell-based or functional assay; also: test concentration or dose not given here
Reported % Lysis, T cell mediated MOLM-13 cell killing, cynomolgus primary T cells, E:T 10:1 is given for each of the following binders.
endpoint: % Lysis, T cell mediated MOLM-13 cell killing, cynomolgus primary T cells, E:T 10:1

| binder | result |
| --- | --- |
| T017000634 (bispecific antibody, also called A0110056A10(E1D)-35GS-T0170056G05(L11V, D27Y, L34Y, M77T, K83R, V89L, F91Y, F95L, Y99W)-A) DVQLVESGGGLVQAGGSLRLSCAASGITSKINDMGWYRQTPGNYREWVASITATGTTNYRDSVKGRFTISRDNAKSTVYLQMNSLKPEDTTVYYCNTFPPISNFWGQGTLVTVSSGGGGSGGGGSGGGGSGGGGSGGGGSGGGGSGGGGSEVQLVESGGGVVQPGGSLRLSCVASGYVHKINFYGWYRQAPGKEREKVAHISIGDQTDYADSAKGRFTISRDESKNTVYLQMNSLRPEDTALYYCRALSRIWPYDYWGQGTLVTVSSA | 32% |
| T017000131 (bispecific antibody, also called A0110056A10(E1D)-35GS-T0170056G05-A) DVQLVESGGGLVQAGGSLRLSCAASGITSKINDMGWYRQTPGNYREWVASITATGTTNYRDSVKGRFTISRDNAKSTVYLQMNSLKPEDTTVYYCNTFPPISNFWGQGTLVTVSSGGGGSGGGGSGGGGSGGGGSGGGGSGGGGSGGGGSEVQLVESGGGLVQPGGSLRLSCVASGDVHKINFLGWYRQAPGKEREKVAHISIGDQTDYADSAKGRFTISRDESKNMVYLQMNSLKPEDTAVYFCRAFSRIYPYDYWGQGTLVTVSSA | 14% |
| T017000627 (bispecific antibody) DVQLVESGGGVVQPGGSLRLSCVASWDVHKINFYGWYRQAPGKEREKVAHISIGDQTDYADSAKGRFTISRDESKNTVYLQMNSLRPEDTALYYCRALSKIWPYDYWGQGTLVTVSSGGGGSGGGGSGGGGSGGGGSGGGGSGGGGSGGGGSEVQLVESGGGLVQAGGSLRLSCAASGITSKINDMGWYRQTPGNYREWVASITATGTTNYRDSVKGRFTISRDNAKSTVYLQMNSLKPEDTTVYYCNTFPPISNFWGQGTLVTVSSA | 19% |
